Overview of reported pEC50 across a group of binders:
# Subject of test: T1, human CD40 on the cell surface (Raji cells, HEK-Blue CD40L cells, primary human B cells and DCs) (human, UniProt P25942 21-277)
# T1 construct: whole, on cells; One entry is used for all cell-surface human CD40, endogenous or transfected; also called Raji cell surface human CD40
# Assay overview: flow cytometry (FACS) binding to Raji cells
In simple prose, pEC50 is minus the logarithm base ten of a concentration in moles per litre.

| Binder | Recorded value |
| --- | --- |
| 9E6 human-rabbit chimeric anti-CD40 antibody (antibody, V domains shown, Rabbit variable regions joined to a human IgG1 constant region with N297A (Eu numbering) and a human kappa constant region) VH: QSVRESEGGLVKPTDTLTLTCTVSGFSLSSYDMSWVRQAPGNGLEWIGAIGGAGGTYYASWAKSRSTITRNTNLNTVTLKMSSLTAADTATYFCARGWTRLDLWGQGTLVTVSS VL: DIVLTQTPSPVSGAVGGTVTIKCQASEDISSNLAWYQQKPGQPPKLLIFPASNLASGVSSRFKGSGSGTEFTLTISDLECADAATYYCQGGYWTSTSNFGNGFGGGTEVVVK | 9.05 |
| 9E6-L2H2 humanized anti-CD40 antibody (antibody, human IgG1, V domains shown) VH: QVQVQESGPGLVKPSDTLSLTCTVSGFSLSSYDMSWIRQPPGKGLEWIGAIGGAGGTYYASWAKSRVTISVDTSLNQVSLKLSSVTAADTAVYYCARGWTRLDLWGQGTLVTVSS VL: DIQLTQSPSFLSASVGDRVTITCQASEDISSNLAWYQQKPGKPPKLLIFPASNLASGVPSRFSGSGSGTEFTLTISSLQPEDFATYYCQGGYWTSTSNFGSGFGGGTKVEIK | 8.78 |

Sample 9E6-L1H1 humanized anti-CD40 antibody (antibody, human IgG1, V domains shown) VH: EVQLQESGPGLVKPSDTLSLTCTVSGFSLSSYDMSWIRQPPGKGLEWIGAIGGAGGTYYASWAKSRVTISVDTSLNQVSLKLSSVTAADTAVYYCARGWTRLDLWGQGTLVTVSS VL: DIQLTQSPSFLSASVGDRVTITCQASEDISSNLAWYQQKPGKPPKLLIFPASNLASGVPSRFSGSGSGTEFTLTISSLQPEDFATYYCQGGYWTSTSNFGNVFGGGTKVEIK — what was its pEC50?
8.97

Sample 9E6-L1H2 humanized anti-CD40 antibody (antibody, human IgG1, V domains shown) VH: QVQVQESGPGLVKPSDTLSLTCTVSGFSLSSYDMSWIRQPPGKGLEWIGAIGGAGGTYYASWAKSRVTISVDTSLNQVSLKLSSVTAADTAVYYCARGWTRLDLWGQGTLVTVSS VL: DIQLTQSPSFLSASVGDRVTITCQASEDISSNLAWYQQKPGKPPKLLIFPASNLASGVPSRFSGSGSGTEFTLTISSLQPEDFATYYCQGGYWTSTSNFGNVFGGGTKVEIK — what was its pEC50?
8.98

Sample 9E6-L3H2 humanized anti-CD40 antibody (antibody, human IgG1, V domains shown) VH: QVQVQESGPGLVKPSDTLSLTCTVSGFSLSSYDMSWIRQPPGKGLEWIGAIGGAGGTYYASWAKSRVTISVDTSLNQVSLKLSSVTAADTAVYYCARGWTRLDLWGQGTLVTVSS VL: DIQLTQSPSFLSASVGDRVTITCQASEDISSNLAWYQQKPGKPPKLLIFPASNLASGVPSRFSGSGSGTEFTLTISSLQPEDFATYYCQGGYWTSTSNFGTGFGGGTKVEIK — what was its pEC50?
8.94

Sample 9E6-L3H1 humanized anti-CD40 antibody (antibody, human IgG1, V domains shown) VH: EVQLQESGPGLVKPSDTLSLTCTVSGFSLSSYDMSWIRQPPGKGLEWIGAIGGAGGTYYASWAKSRVTISVDTSLNQVSLKLSSVTAADTAVYYCARGWTRLDLWGQGTLVTVSS VL: DIQLTQSPSFLSASVGDRVTITCQASEDISSNLAWYQQKPGKPPKLLIFPASNLASGVPSRFSGSGSGTEFTLTISSLQPEDFATYYCQGGYWTSTSNFGTGFGGGTKVEIK — what was its pEC50?
8.97
